System: OVCAR-5 ovarian
experiment notes: NCI-60 one-dose screen, 48 h
condition summary: 10 µM
Compounds without any hit were thinned out: in the full panel of roughly 83,000, 20% have a hit. The source made the active and inactive calls. How the source made its calls: active means growth percent below 10; inactive means the rest.
The reply should be one of these categories: TRUE (active), FALSE (inactive)

molecule=CS(=O)(=O)c1nccc(-c2c(-c3cccc(OCc4ccccc4)c3)nc3sccn23)n1 group_label=FALSE
molecule="C[C@]12CCC3c4ccc(O)cc4C[C@@H](CCCCCCCCCS(=O)CCCC(F)(F)C(F)(F)F)C3C1CC[C@@H]2O (stereo not given in full)" group_label=FALSE
molecule=COc1ccc(Cc2cnc(N)nc2N)cc1OC group_label=FALSE

input: // return assay outcome for COc1ccc(N=Nc2cc(OC)c(OC)c(OC)c2)cc1
output: FALSE

input: Which outcome was assigned to O=C1CC(=O)N(C(=O)c2nn(-c3ccc(Cl)cc3)cc2O)N1 in this test?
output: FALSE

----------
# growth per record follows
Tested on: M14 melanoma
experiment notes: NCI-60 one-dose screen, 48 h (100 = growth as untreated, 0 = no growth, -100 = all killed)
condition summary: 10 µM
Compounds without any hit were thinned out: in the full panel of roughly 83,000, 20% have a hit.
Write the answer as a number in %, unit excluded.

Record excerpt, results attached:
compound=COc1ccc2c(c1)C(=O)/C(=C/c1ccc([N+](=O)[O-])o1)O2 value_unit=% value_observed=-64.2
compound=COc1ccc2nc3cc(Cl)ccc3c(N)c2c1 value_unit=% value_observed=-95.6
compound=COc1ccc2c(c1)C(=O)/C(=C/c1ncc([N+](=O)[O-])n1C)O2 value_unit=% value_observed=-37.7
compound="C=CCN(CC=C)C(=O)[C@H](CC)[C@@H]1CC[C@@H](C)[C@@H]([C@H](C)[C@@H](O)[C@@H](C)C(=O)[C@H](CC)C2O[C@]3(C=CC(=O)[C@]4(CC[C@@](C)([C@H]5CC[C@](O)(CC)[C@H](C)O5)O4)O3)[C@H](C)C[C@@H]2C)O1 (stereo partly drawn)" value_unit=% value_observed=17.3
compound=O=S(=O)(Oc1ccc(-c2ccc3sccc3c2)cc1)c1ccc(F)cc1 value_unit=% value_observed=113

input: Note down growth recorded for COc1ccc(-c2n[nH]nc2-c2cc(OC)c(OC)c(OC)c2)cc1
output: 12.2

input: Supply growth value. Item: O=C1/C(=C/c2ccc([N+](=O)[O-])s2)Oc2cc(Cl)ccc21
output: 2.51

input: Tell me its growth given C/C=C/C1=CN2C(=O)c3cc(OC4OC(C)C(NC)C(C)(O)C4O)c(C)c(O)c3N=C[C@@H]2C1 (stereo partly drawn) as the entry.
output: -63.2

----------
System: COLO 205 colon
experiment notes: NCI-60 one-dose screen, 48 h
condition summary: 10 µM
The panel holds about 83,000 compounds, 20% with a hit somewhere; the sample as a whole holds those more often. Active and inactive are the calls of the source. The calls were made as follows: active = growth percent below 10; inactive = the rest.
Select the correct class. Options are 1.0 (active), 0.0 (inactive) and nothing else.

compound=O=C1CCn2c1c(O)c1ccccc1c2=O group_label=0.0
compound=O=C(O)c1cn(C2CC2)c2cc(N3CCN(C(=O)c4cc(-c5ccc(Cl)cc5)nc5ccccc45)CC3)c(F)cc2c1=O group_label=0.0
compound=O=C(Nc1nc(-c2ccccc2)nc2c1sc(=S)n2-c1ccccc1)C(F)(F)F group_label=0.0

input: Look up the recorded call for CCN(CC)CCCC(C)N=C(C1=C(C(=NC(C)CCCN(CC)CC)c2cccc(OC)c2)C(=O)NC1=O)c1cccc(OC)c1 (centres undefined) in this test.
output: 1.0

input: Can you look up the reported call for CCC(c1ccc(OC)cc1)C(CC)c1ccc(O)c(CN2CCN(C)CC2)c1 (centres undefined) for me?
output: 1.0

input: Per the assay record, what outcome was assigned to CC(C)c1cc(N=O)cc(C(C)C)c1O ?
output: 0.0

input: Please state the recorded outcome for this compound: N#Cc1ccc(C(=O)CSc2nccc(Nc3ccc(C(=O)O)cc3)n2)cc1
output: 0.0

input: Hi, do you know how Cn1c2ccccc2c2c3[nH][nH]c(=O)c3c3c4ccccc4[nH]c3c21 came out in this test?
output: 0.0

input: I would be grateful if you could indicate the recorded call for NS(=O)(=O)Oc1ccc(-c2ccc3sccc3c2)cc1 .
output: 0.0

input: Lab log entry: O=C1c2ccccc2C(=O)c2c1ccc1c(=O)n(-c3ccccc3C(F)(F)F)nnc21 — outcome as called in the assay?
output: 1.0

input: Recorded test call requested for CC[C@H]1OC(=O)[C@H](C)[C@@H](O[C@H]2C[C@@](C)(OC)[C@@H](O)[C@H](C)O2)[C@H](C)[C@@H](O[C@@H]2O[C@H](C)C[C@H](N(C)C)[C@H]2O)[C@](C)(OC)C/C(C)=C2/O[C@@]1(C)C=C2C
output: 1.0

input: Which result was noted for this compound in the test: CN1C(=O)C2(Nc3cc(Cl)ccc3S2)c2cc(Cl)ccc21 (centres undefined)
output: 0.0

input: Recorded call for CN1CCc2c(sc3nc4n(-c5ccc(Cl)cc5)cnn4c(=O)c23)C1 ?
output: 0.0

input: Which outcome was assigned to COc1ccc2nc(-c3ccc(Cl)cc3)cc(-c3nnc(SC/C(=N\O)c4ccccc4)n3-c3ccccc3)c2c1 in this test?
output: 0.0

input: Which result was noted for this compound in the test: O=C(CCCSc1nc(-c2ccc(Cl)cc2)cc(-c2ccc(Cl)cc2)n1)NO
output: 1.0

input: Assay result, entry COc1cc(C(=O)/C=C/c2c[nH]c3ccccc23)cc(OC)c1OC — outcome?
output: 1.0

input: Kindly provide the recorded test outcome for the following compound: Cc1nc2n(c(=O)c1CCN1CCC(c3noc4cc(F)ccc34)CC1)CCC[C@@H]2O
output: 0.0

input: Outcome logged for CC(C)(C)c1ccc(S(=O)(=O)N[C@H]2CC[C@H]3[C@@H]4CCc5cc(O)ccc5[C@H]4CC[C@]23C)cc1 in this assay:
output: 1.0

input: Given COc1cc(/C=C/c2cc(/C=C/c3ccc(O)c(OC)c3)n(C(=O)Nc3ccccc3Cl)n2)ccc1O , state the outcome it received in this test.
output: 1.0

----------
Test system: SN12C renal
experiment notes: NCI-60 one-dose screen, 48 h (100 = growth as untreated, 0 = no growth, -100 = all killed)
condition summary: 10 µM
Compounds without any hit were thinned out: in the full panel of roughly 83,000, 20% have a hit.
growth strictly less than 90% = Fulfilled. Otherwise Not fulfilled.

compound=O=C1c2c(c(=O)[nH]c3ccccc23)CCN1Cc1ccccc1 group_label="Not fulfilled"
compound=CCOC(=O)N/N=C/c1ccc(OC)c(OC)c1 group_label="Not fulfilled"
compound="NC(CSC(c1ccccc1)(c1ccccc1)c1cccc2ccccc12)C(=O)O (stereo not given)" group_label=Fulfilled
compound=CC(C)(C)c1ccc(S(=O)(=O)N[C@H]2CC[C@H]3[C@@H]4CCc5cc(OS(=O)(=O)O)ccc5[C@H]4CC[C@]23C)cc1 group_label=Fulfilled

input: Quick check: growth of COc1ccc(/C=C/C(=O)C(=O)/C=C/c2ccc(OC)c(OC)c2)cc1OC under 90%?
output: Fulfilled

input: Confirm or reject: growth of COc1cc2c(cc1OC)C(C(CCCCCC(CCC(C)C)C1NCCc3cc(OC)c(OC)cc31)CCC(C)C)NCC2 (stereo not given) lies strictly below 90%
output: Fulfilled

input: Please state whether growth is below 90% for Nc1ncnc2c1ncn2C1(CO)OCC(O)C(O)C1O (stereo not given)
output: Not fulfilled

input: Record CCOC(=O)C1=CSC2=NC3=C(CCC/C3=C\c3cc(OC)c(OC)c(OC)c3)C(c3cc(OC)c(OC)c(OC)c3)N12 (stereo not given) : is its growth strictly below 90%?
output: Fulfilled

input: Answer whether the compound Clc1ccc(/C=C2\CCCC3C2=Nc2ccccc2NC3c2ccc(Cl)cc2)cc1 (stereo not given) has growth strictly less than 90%
output: Fulfilled

----------
The compounds listed here are annotated with their growth.
System: NCI-H460 lung
experiment notes: NCI-60 one-dose screen, 48 h (100 = growth as untreated, 0 = no growth, -100 = all killed)
condition summary: 10 µM
Compounds without any hit were thinned out: in the full panel of roughly 83,000, 20% have a hit.
Express it in %; write the number only.

Consider the reported growth for these compounds:
smiles_record=S=C1N(c2ccccc2)CN(C2CCCCC2)CN1c1ccccc1 test_system="NCI-H460 lung" property_name=growth value_unit=% value_observed=105
smiles_record=O=C(CCl)Oc1ccc(OC(=O)CCl)cc1 test_system="NCI-H460 lung" property_name=growth value_unit=% value_observed=95
smiles_record=O=C1Cc2cc(CCN3CCN(c4nsc5ccccc45)CC3)c(Cl)cc2N1 test_system="NCI-H460 lung" property_name=growth value_unit=% value_observed=103
smiles_record=c1ccc(CSc2ncccc2-c2nnc(SCCN3CCOCC3)o2)cc1 test_system="NCI-H460 lung" property_name=growth value_unit=% value_observed=122

input: Indicate the recorded growth value for this compound: O=C(O)c1ccc(-n2cc(CNc3ccc(Cl)cc3)c(-c3ccccc3)n2)cc1
output: 88.6

input: Please give the documented growth of C(=N\Nc1ncnc2sc3c(c12)CCNC3)/c1cccc2ccccc12
output: 62.8

input: Using the record for CCOC(=O)N/N=C/c1ccc(OC)c(OC)c1 , state its measured growth.
output: 102

input: Give growth for COc1cc(-c2nn(-c3ccc(NC(=O)NCCNS(=O)(=O)c4ccc(F)cc4)cc3)cc2-c2ccncc2)ccc1Cl
output: 0.926

input: For Cc1ccc(C(C)C)c(O)c1NC(=O)OC(C)C , write its growth.
output: 102

input: Hello, please tell me recorded growth for this one: c1cnc2[nH]cc(-c3nc(-c4ccsc4)cs3)c2c1
output: 109

input: Report growth for COc1ccc(C2=Cn3c(CCC(=O)c4nc5ccccc5[nH]4)nnc3SC2)cc1
output: 101
